Known pIC50 of a selection of compounds
target: human orexin-2 receptor (Homo sapiens (Human)); assay: FLIPR Ca2+ Flux Assay, orexin-2 receptor (hOX2R FLIPR); conditions: CHO cells expressing the human orexin-2 receptor; agonist 70 pM Ala-6,12 human orexin-A
Sequence (O43614 whole entry): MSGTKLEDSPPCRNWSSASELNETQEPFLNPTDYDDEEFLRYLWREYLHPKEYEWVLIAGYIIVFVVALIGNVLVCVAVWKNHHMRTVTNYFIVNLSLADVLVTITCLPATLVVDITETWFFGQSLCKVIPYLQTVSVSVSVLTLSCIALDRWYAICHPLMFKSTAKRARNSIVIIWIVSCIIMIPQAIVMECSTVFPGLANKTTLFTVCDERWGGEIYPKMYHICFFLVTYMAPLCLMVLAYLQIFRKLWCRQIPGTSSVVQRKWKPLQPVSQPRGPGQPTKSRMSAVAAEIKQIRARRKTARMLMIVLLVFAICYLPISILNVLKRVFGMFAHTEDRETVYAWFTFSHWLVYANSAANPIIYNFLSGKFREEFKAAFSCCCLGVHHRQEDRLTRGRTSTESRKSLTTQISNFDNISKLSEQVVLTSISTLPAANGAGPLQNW
The read-out pIC50 is expressed as -log10 of concentration in moles per litre.

See these solved cases before continuing.
compound | study-system | pIC50
C[C@@H]1CC[C@@H](n2cc([C@@H](O)C(F)(F)F)cn2)CN1C(=O)c1ccccc1-n1nccn1 [Example 102] | human orexin-2 receptor (Homo sapiens (Human)) | 6.91
CCCc1ccccc1C(=O)N1C[C@H](n2ncc(C(C)(C)O)n2)CC[C@H]1C [Example 4] | human orexin-2 receptor (Homo sapiens (Human)) | 7.80
C[C@@H]1CC[C@@H](n2ncc([C@H](O)C(F)(F)F)n2)CN1C(=O)c1ccccc1-n1nccn1 [Example 26] | human orexin-2 receptor (Homo sapiens (Human)) | 7.06

// recorded pIC50 for C[C@@H]1CC[C@@H](n2ncc(-c3ccccc3)n2)CN1C(=O)c1ccccc1-n1nccn1 [Example 28] : 7.16

The compound listed as C[C@@H]1CC[C@@H](n2cc([C@](C)(O)C(F)(F)F)cn2)CN1C(=O)c1ccccc1-n1nccn1 [Example 106] has a reported pIC50 of 7.97

pIC50 recorded for this compound, C[C@@H]1CC[C@@H](n2ncc(C(C)(C)O)n2)CN1C(=O)c1cc(F)ccc1-n1nccn1 [Example 38] , is 7.56

Recorded result, Cc1nc(-c2cc(F)ccc2C(=O)N2C[C@H](n3ncc(C(C)(C)O)n3)CC[C@H]2C)no1 [Example 40] , pIC50: 7.06

Sample C[C@@H]1CC[C@@H](n2cc([C@@](C)(O)C(F)(F)F)cn2)CN1C(=O)c1ccccc1-n1nccn1 [Example 105] ; pIC50 observed: 8.03

Briefly, pIC50 measured for Cc1nn([C@@H]2CC[C@@H](C)N(C(=O)c3ccccc3-n3cccn3)C2)nc1C(C)(C)O [Example 71] : 8.03

The measured pIC50 associated with CCOc1ncccc1C(=O)N1C[C@H](n2nc(C)c(C(C)(C)O)n2)CC[C@H]1C [Example 65] reads 7.82
